# Assay details: Bioavailability in dog
# Format: ADME, organism-based, Canis lupus familiaris
# Particulars: in vivo
Parameter: bioavailability (%)
# output: bare number, implied unit %

Query: Quote bioavailability reported for "COc1ccc([C@@H](CCC[C@H](O)CCc2ccc3c(n2)NCCC3)CC(=O)O)cn1" please.
Result: 60

====

Overview of recorded Selectivity ratio for various compounds
# Assay details: Selectivity for cathepsin K over cathepsin L
Write the value as a bare number.

Query: Please report Selectivity ratio for the following compound: "CC(C)(F)C[C@H](N[C@@H](c1ccc(-c2ccc(S(C)(=O)=O)cc2)cc1)C(F)(F)F)C(=O)NC1(C#N)CC1"
Result: 15000

Query: Supply recorded Selectivity ratio for "CN1CCN(c2nc(-c3ccc(C(=O)NC4(C(=O)N[C@@H]5C(=O)N[C@@H]5Oc5ccccc5)CCCCC4)cc3)cs2)CC1" here.
Result: 500

Query: Identify measured Selectivity ratio associated with "CC(C)CNc1nc(C#N)nc(N2CCOCC2)c1N"
Result: 111

Query: Consider the compound "CS(=O)(=O)c1ccc(-c2cn(CC(F)(F)F)nc2[C@@H]2CCC(Cl)(Cl)C[C@H]2C(=O)NC2(C#N)CC2)cc1" . State its measured Selectivity ratio.
Result: 4700

Measured values drawn from ChEMBL document CHEMBL1155461 for this set.
